System: turtle Thyroid Hormone Receptor, alpha (TRa), gene 101949057
Assay: ATG_trTRa_XSP2: Attagene TRANS-FACTORIAL Multi-Species (XSP1) HepG2 Assay for turtle Thyroid Hormone Receptor, alpha (TRa) (AID 2283834);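 also: hits raise reporter mRNA over the DMSO baseline so AC50 marks activators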
Records with an inconclusive call do not appear. Calls of active or inactive are those of the source. The calls were made as follows: active = hit-call score of the fitted dose curve at least 0.9, where 1 is the maximum; inconclusive = response in the unintended direction; inactive = score below 0.9.
Labels: label 1 (active), label 0 (inactive)

compound=CC(C)Oc1cc(-n2nc(C(C)(C)C)oc2=O)c(Cl)cc1Cl assignedcategory="label 1"
compound=CCCCOC(=O)c1ccccc1C(=O)OCCCC assignedcategory="label 0"
compound=CCCCNC(=O)OCC#CI assignedcategory="label 1"
compound=CON(C)C(=O)Nc1ccc(Cl)c(Cl)c1 assignedcategory="label 0"
compound=COP(=S)(OC)Oc1nc(Cl)c(Cl)cc1Cl assignedcategory="label 0"
compound="C=CC1(C)OC(=O)N(c2cc(Cl)cc(Cl)c2)C1=O (centres undefined)" assignedcategory="label 0"
compound="OC(c1ccc(Cl)cc1)(c1cncnc1)c1ccccc1Cl (centres undefined)" assignedcategory="label 0"
compound="CCCCC(CC)COC(=O)c1ccccc1C(=O)OCC(CC)CCCC (centres undefined)" assignedcategory="label 0"
compound=COC(=O)N(OC)c1ccccc1COc1ccn(-c2ccc(Cl)cc2)n1 assignedcategory="label 0"
